Molecular target: T1, human CCR8 with a SNAP-tag at the N-terminus (human, UniProt P51685 1-355, SNAP-tag labelled covalently with Lumi4-Terbium)
T1 construct: also called hCCR8 SNAP-tag; CCR8 SNAP-tag
Experiment: HTRF Tag-lite, inhibition of hCCL1-AF647 binding to SNAP-hCCR8 on HEK-293 cells
Observation type: IC50 (µg/mL)
A number alone suffices; assume µg/mL.

Would you please look over these solved cases?
Binder	Observation type	Obs value
anti-CCR8 mAb 1-24 (antibody, human IgG1, kappa, V domains shown, Humanized mAb, human IgG1 / kappa) VH: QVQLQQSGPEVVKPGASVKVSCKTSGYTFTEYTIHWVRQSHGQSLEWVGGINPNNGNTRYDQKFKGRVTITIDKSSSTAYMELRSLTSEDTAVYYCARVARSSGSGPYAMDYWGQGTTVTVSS VL: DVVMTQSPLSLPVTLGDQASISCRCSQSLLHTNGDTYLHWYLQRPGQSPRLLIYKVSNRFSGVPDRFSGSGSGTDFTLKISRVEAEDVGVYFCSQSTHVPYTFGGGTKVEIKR	IC50	0.04
anti-CCR8 mAb 1-22 (antibody, human IgG1, kappa, V domains shown, Humanized mAb, human IgG1 / kappa) VH: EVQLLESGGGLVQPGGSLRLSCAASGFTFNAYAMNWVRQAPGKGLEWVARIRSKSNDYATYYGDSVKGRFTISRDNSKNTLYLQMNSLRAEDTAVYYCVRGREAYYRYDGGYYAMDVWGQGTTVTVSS VL: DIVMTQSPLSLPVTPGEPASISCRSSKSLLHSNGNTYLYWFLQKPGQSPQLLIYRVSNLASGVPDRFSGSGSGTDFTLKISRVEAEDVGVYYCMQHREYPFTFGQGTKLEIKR	IC50	0.15
anti-CCR8 mAb 1-19 (antibody, human IgG1, kappa, V domains shown, Humanized mAb, human IgG1 / kappa) VH: EVQLVESGGGLVQPGRSLRLSCTASGFTFNTYAMNWVRQAPGKGLEWVARIRSKSNNYATYYAASVKGRFTISRDDSKSIAYLQMNSLKTEDTAVYYCVRGREAYYRYDGGYYAMDVWGQGTTVTVSS VL: DIVMTQAAPSLPVTPGESASISCRSSKSLLHSNGNTYLYWFLQKPGQSPQLLIYRMSNLASGVPDRFSGSGSGTAFTLKISRVEAEDVGVYYCMQHLEYPFTFGSGTKLEIKR	IC50	0.02

Now look at this entry.
Look at this binder and give its reported IC50. anti-CCR8 mAb 1-23 (antibody, human IgG1, kappa, V domains shown, Humanized mAb, human IgG1 / kappa) VH: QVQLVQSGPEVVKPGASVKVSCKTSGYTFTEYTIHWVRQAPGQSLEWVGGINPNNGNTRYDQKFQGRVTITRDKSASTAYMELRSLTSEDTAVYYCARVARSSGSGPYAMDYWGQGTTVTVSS VL: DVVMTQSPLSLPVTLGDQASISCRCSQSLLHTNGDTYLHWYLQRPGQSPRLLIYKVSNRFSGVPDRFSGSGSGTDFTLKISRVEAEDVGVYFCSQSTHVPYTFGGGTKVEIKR
0.04
